Test system: H1 or H9 human embryonic stem cells
Experiment: Activin A bioassay: differentiation of human embryonic stem cells to definitive endoderm, cell number and SOX17 intensity by high content analysis (96-well, four days)
Format: cell-based
Settings: supernatant concentration 10x, assay dilution 1:20; control = R&D Sys Activin A 100 ng/ml on same plate
The molecules listed here are annotated with their Sox 17 Intensity % of control.

molecule: ACTN89: activin A variant peptide, SEQ ID 90 (protein) GLECDGKVNICCKKQLFGQTKDIGWNDWIIAPSGYHGGGCSGECPSHIAGTSGSSLSFHSTVINHYRMRGHSPNANLKSCCSPTKLRPMSMLYYDDGQNIIKKDIQNMKVEECGCT
Sox 17 Intensity % of control / %: 2.5

molecule: ACTN13: activin A variant peptide, SEQ ID 14 (protein) GLECDGKVNLCCKKQDFVSFKDIGWNDWIIAPSGYHANKCSGKCPSHIAGTSGSSLSFHSTVINHYRMRGHSPFSDMGSCCIPTKLRPMSMLYYDDGQNIIKKDIQNMIVEECGCS
Sox 17 Intensity % of control / %: 19.7

molecule: ACTN27: activin A variant peptide, SEQ ID 28 (protein) GLECDGKVNLCCKKQLFVSFKDIGWNDWIIAPSGYHANHCDGKCPSHIAGTSGSSLSFHSTVINHYRMRGHSPFANRGACCIPTKLRPMSMLYYDDGQNIIKKDIQNMIVEECGCS
Sox 17 Intensity % of control / %: 55.7

molecule: ACTN64: activin A variant peptide, SEQ ID 65 (protein) GLECDGKVNICCKKQSFGQTKDIGWNDWIIAPSGYHGGGCSGECPSHIAGTSGSSLSFHSTVINHYRMRGHSPWANLKSCCSPTKLRPMSMLYYDDGQNIIKKDIQGMVVEECGCT
Sox 17 Intensity % of control / %: 5.2

molecule: ACTN93: activin A variant peptide, SEQ ID 94 (protein) GLECDGKVNICCKKQSFGQTKDIGWNDWIIAPSGYHGGGCTGECPSHIAGTSGSSLSFHSTVINHYRMRGHSPFANLKSCCSPTKLRPMSMLYYDDGQNIIKKDIQNMKVEECGCT
Sox 17 Intensity % of control / %: 2.7

molecule: ACTN35: activin A variant peptide, SEQ ID 36 (protein) GLECDGKVNLCCKKQDFVSFKDIGWNDWIIAPSGYHANRCSGKCPSHIAGTSGSSLSFHSTVINHYRMRGHSPFSDMGSCCVPTKLRPMSMLYYDDGQNIIKKDIQNMIVEECGCS
Sox 17 Intensity % of control / %: 4.3

molecule: ACTN25: activin A variant peptide, SEQ ID 26 (protein) GLECDGKVNLCCKKQNFVSFKDIGWNDWIIAPSGYHANECSGLCPSHIAGTSGSSLSFHSTVINHYRMRGHSPFSQMGSCCIPTKLRPMSMLYYDDGQNIIKKDIQNMIVEECGCS
Sox 17 Intensity % of control / %: 16.1

molecule: ACTN63: activin A variant peptide, SEQ ID 64 (protein) GLECDGKVNICCKKQSFSQAKDIGWNDWIIAPSGYHGGGCTGECPSHIAGTSGSSLSFHSTVINHYRMRGHSPFANLKSCCSPTKLRPMSMLYYDDGQNIIKKDIQGMVVEECGCT
Sox 17 Intensity % of control / %: 7.7

molecule: ACTN8: activin A variant peptide, SEQ ID 9 (protein) GLECDGKVNYCCKKQDFVSFKDIGWNDWIIAPSGYHANKCSGKCPSHIAGTSGSSLSFHSTVINHYRMRGHSPFSDMGSCCVPTKLRPMSMLYYDDGQNIIKKDIQNMIVEECGCS
Sox 17 Intensity % of control / %: 6.4

molecule: ACTN56: activin A variant peptide, SEQ ID 57 (protein) GLECDGKVNICCKKQSFGQAKDIGWNDWIIAPSGYHGGSCTGECPSHIAGTSGSSLSFHSTVINHYRMRGHSPFANLKSCCAPTKLRPMSMLYYDDGQNIIKKDIQNMVVEECGCV
Sox 17 Intensity % of control / %: 19.8

molecule: ACTN26: activin A variant peptide, SEQ ID 27 (protein) GLECDGKVNLCCKKQHFVSFKDIGWNDWIIAPSGYHANRCDGKCPSHIAGTSGSSLSFHSTVINHYRMRGHSPFANMGACCIPTKLRPMSMLYYDDGQNIIKKDIQNMIVEECGCS
Sox 17 Intensity % of control / %: 2.7

molecule: ACTN21: activin A variant peptide, SEQ ID 22 (protein) GLECDGKVNYCCKKQWFVSFKDIGWNDWIIAPSGYHANKCSGKCPSHIAGTSGSSLSFHSTVINHYRMRGHSPFANMGSCCIPTKLRPMSMLYYDDGQNIIKKDIQNMIVEECGCS
Sox 17 Intensity % of control / %: 1.7

molecule: ACTN28: activin A variant peptide, SEQ ID 29 (protein) GLECDGKVNYCCKKQLFVSFKDIGWNDWIIAPSGYHANHCSGKCPSHIAGTSGSSLSFHSTVINHYRMRGHSPFANMGSCCIPTKLRPMSMLYYDDGQNIIKKDIQNMIVEECGCS
Sox 17 Intensity % of control / %: 165.7
